# Test system: Human papillomavirus type 1a protein E7 (residues 44-93)
# experimental protocol: HPV1a E7 fragment binders on microarrays, primary screen, biochemical, small-molecule microarray, residues 44-93, 635 nm fluorescence (AID 1108);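 also: E7 fragment applied at 1 µg/mL in TBST for 1 h at 4 C; score combines spot fluorescence with its signal to noise ratio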
# details: small-molecule microarray binding, fluorescence 635 nm; higher = more signal
Response key: condition met means composite z-score >= 1; condition not met means composite z-score < 1.

Field: example entries. Status: answers known.
compound	system tested	group label
Cc1ccc(S(=O)(=O)N2[C@@H](c3ccccc3)C(C(=O)O)=CC[C@H]2c2ccc(F)cc2)cc1	Human papillomavirus type 1a protein E7 (residues 44-93)	condition met
O=C(NC1CC1)[C@@H]1c2ccccc2C(=O)N(C2CCCCC2)[C@H]1c1ccc(CO)cc1	Human papillomavirus type 1a protein E7 (residues 44-93)	condition not met
C=C[C@H](OC)[C@@H](O)c1ccc(OC)c(O)c1	Human papillomavirus type 1a protein E7 (residues 44-93)	condition not met
COc1cc(Cc2cc3c(c(CCc4ccccc4)n2)[Si](C(C)C)(C(C)C)O[C@H]3c2ccccc2)cc(OC)c1OC	Human papillomavirus type 1a protein E7 (residues 44-93)	condition not met
COCCOC(=O)N1C(=O)[C@@]2(c3cc(C#CCNC(N)=O)ccc31)[C@H](C(N)=O)[C@H]1C(=O)O[C@H](c3ccccc3)[C@H](c3ccccc3)N1[C@@H]2c1ccc(O)cc1	Human papillomavirus type 1a protein E7 (residues 44-93)	condition not met
CN1C(=O)C2C=CC(C(O)c3ccc(I)cc3)N(N(c3ccccc3)c3ccccc3)C2C1=O (configuration not stated)	Human papillomavirus type 1a protein E7 (residues 44-93)	condition not met
CCOC(=O)C1=C[C@@H](C(C)(C)C)N(S(=O)(=O)c2ccc(C)cc2)[C@H]1c1ccc(OC)cc1	Human papillomavirus type 1a protein E7 (residues 44-93)	condition met
[N-]=[N+]=NCc1ccccc1C[C@@]1(C(N)=O)N=C(c2ccc(OCCCO)cc2)O[C@@H]1c1ccccc1N=[N+]=[N-]	Human papillomavirus type 1a protein E7 (residues 44-93)	condition met

Has "Cc1ccc(S[C@]2(C(=O)NCC(C)C)CC(=O)N(C(C)C)[C@@H]2c2ccc(CO)cc2I)cc1" a recorded composite z-score greater than or equal to 1?
condition not met

Lookup "COCCOC(=O)N1C(=O)[C@@]2(c3cc(C#CCC(C(=O)OC)C(=O)OC)ccc31)[C@H](C(N)=O)[C@H]1C(=O)O[C@H](c3ccccc3)[C@H](c3ccccc3)N1[C@@H]2c1ccccc1OCCO"
condition met

Check "C=C(C(=O)CC[C@@H](OC(=O)c1ccccc1-c1ccccc1C(=O)O)c1ccc(OCCO)cc1)C(C)C" too.
condition met

Param item: "CO[C@H]1O[C@H](CO)[C@@H](OC(=O)Nc2ccccc2)[C@@H]2OC(=O)[C@@H](Cc3ccccc3)C/C=C/C[C@H](Cc3ccccc3)C(=O)O[C@@H]12"
condition not met

Moving on to "[N-]=[N+]=NCc1ccccc1[C@H]1OC(c2ccc(OCCCO)cc2)=N[C@@]1(CCS(=O)(=O)c1ccccc1)C(=O)NCCN1CCOCC1"
condition met

Request: "C=CCNC(=O)[C@@H]1[C@H]2C(=O)O[C@H](c3ccccc3)[C@H](c3ccccc3)N2[C@H](c2ccc(O)cc2)[C@@]12C(=O)N(C(=O)OCCOC)c1ccc(C#CCC(C(=O)OC)C(=O)OC)cc12"
condition met

Param item: "COC(=O)C(CC#Cc1ccc2c(c1)[C@]1(C(=O)N2)[C@H](C(=O)N2CCN(c3ncccn3)CC2)[C@H]2C(=O)O[C@H](c3ccccc3)[C@H](c3ccccc3)N2[C@@H]1c1ccc(O)cc1)C(=O)OC"
condition not met

Also, "C=CCNC(=O)[C@@H]1[C@H]2C(=O)O[C@H](c3ccccc3)[C@H](c3ccccc3)N2[C@H](c2ccc(OCCO)cc2)[C@@]12C(=O)N(C(=O)OCCOC)c1ccccc12" please.
condition met
